- Test system: KHOS-240S
- experiment: relative viability vs DMSO control (72 h) (fraction); higher = more viable cells
- stated_conditions: 0.00152 µM
endpoint_label: relative viability
Lab note: write the figure by itself, no unit.

Solved cases below.
C1=N/C2=N/c3ccc(OCCN4CCCC4)c(c3)COC/C=C/COCc3cccc(c3)C(=C1)N2; 1.08
CO[C@@H]1[C@H](N(C)C(=O)c2ccccc2)C[C@H]2O[C@]1(C)n1c3ccccc3c3c4c(c5c6ccccc6n2c5c31)C(=O)NC4; 1.03
CN1CCN(CCOc2cc(OC3CCOCC3)c3c(Nc4c(Cl)ccc5c4OCO5)ncnc3c2)CC1; 1.07
NC(=O)c1cnc2[nH]ccc2c1N[C@@H]1[C@@H]2CC3C[C@H]1C[C@@](O)(C3)C2; 1.04
C[C@@H]1COC(Nc2ccc3ncnc(Nc4ccc(OCc5nccs5)c(Cl)c4)c3c2)=N1; 1.02
CNC(=O)c1cc(Oc2ccc(NC(=O)Nc3ccc(Cl)c(C(F)(F)F)c3)cc2)ccn1; 1.09
Cc1cn(-c2cc(NC(=O)c3ccc(C)c(Nc4nccc(-c5cccnc5)n4)c3)cc(C(F)(F)F)c2)cn1; 1.03
COc1cc2ncnc(Nc3cccc(Cl)c3F)c2cc1OC(=O)N1CCN(C)C[C@H]1C; 1.06

Form field: reported relative viability of CCN(c1cc(-c2ccc(CN3CCOCC3)cc2)cc(C(=O)NCc2c(C)cc(C)[nH]c2=O)c1C)C1CCOCC1
1.03

Form field: reported relative viability of CC[C@@H]1C(=O)N(C)c2cnc(Nc3ccc(C(=O)N[C@H]4CC[C@H](N5CCN(CC6CC6)CC5)CC4)cc3OC)nc2N1C(C)C
1.06

* * *

Below is a list of entries, each paired with its recorded standardised AUC value.
- Tested on: HT1080
- experiment: standardised AUC of viability dose-response curve (72 h) (fraction (0-1)); higher = less growth inhibition (more resistant)
Lab note: write the figure by itself, no unit.

Solved cases below.
CCN(CCCOc1ccc2c(Nc3cc(CC(=O)Nc4cccc(F)c4)[nH]n3)ncnc2c1)CCOP(=O)(O)O; 0.925
COc1cc(OC)cc(N(CCNC(C)C)c2ccc3ncc(-c4cnn(C)c4)nc3c2)c1; 0.964
CO[C@H]1C[C@@H]2CC[C@@H](C)[C@@](O)(O2)C(=O)C(=O)N2CCCC[C@H]2C(=O)O[C@H]([C@H](C)C[C@@H]2CC[C@@H](O)[C@H](OC)C2)CC(=O)[C@H](C)/C=C(\C)[C@@H](O)[C@@H](OC)C(=O)[C@H](C)C[C@H](C)/C=C/C=C/C=C/1C; 0.916

// below: standardised AUC requested for another molecule
Form field: reported standardised AUC of Cc1ccc(NC(=O)c2ccc(CN3CCN(C)CC3)cc2)cc1Nc1nccc(-c2cccnc2)n1
0.974

* * *

- Tested on: A204
- experiment: relative viability vs DMSO control (72 h) (fraction); higher = more viable cells
- stated_conditions: 3.333 µM
// classify: if (relative viability < 0.6) true (1) else false (0)

Cc1ccc(NC(=O)c2ccc(CN3CCN(C)CC3)cc2)cc1Nc1nccc(-c2cccnc2)n1 [Imatinib]; true (1)

Consider the compound C=CC(=O)Nc1cc(Nc2nccc(-c3cn(C)c4ccccc34)n2)c(OC)cc1N(C)CCN(C)C [Osimertinib] . Is its relative viability strictly less than 0.6?
true (1)

Consider the compound COc1cc2ncnc(Nc3ccc(F)c(Cl)c3)c2cc1NC(=O)/C=C/CN1CCCCC1 [Dacomitinib] . Is its relative viability strictly less than 0.6?
true (1)

Consider the compound CCN(CCCOc1ccc2c(Nc3cc(CC(=O)Nc4cccc(F)c4)[nH]n3)ncnc2c1)CCOP(=O)(O)O [Barasertib] . Is its relative viability strictly less than 0.6?
true (1)

* * *

- Test system: KHOS-NP
- experiment: relative viability vs DMSO control (72 h) (fraction); higher = more viable cells
- stated_conditions: 3.333 µM
endpoint_label: relative viability

Solved cases below.
CO[C@H]1C[C@@H]2CC[C@@H](C)[C@@](O)(O2)C(=O)C(=O)N2CCCC[C@H]2C(=O)O[C@H]([C@H](C)C[C@@H]2CC[C@@H](O)[C@H](OC)C2)CC(=O)[C@H](C)/C=C(\C)[C@@H](O)[C@@H](OC)C(=O)[C@H](C)C[C@H](C)/C=C/C=C/C=C/1C; 1.02
Cc1cn(-c2cc(NC(=O)c3ccc(C)c(Nc4nccc(-c5cnccn5)n4)c3)cc(C(F)(F)F)c2)cn1; 1.09

// below: relative viability requested for another compound
Form field: reported relative viability of COc1cc2c(Oc3ccc4[nH]c(C)cc4c3F)ccnc2cc1OCC1(N)CC1
0.735

* * *

- System: SK-LMS-1
- experiment: relative viability vs DMSO control (72 h) (fraction); higher = more viable cells
- stated_conditions: 0.3704 µM
endpoint_label: relative viability
Lab note: write the figure by itself, no unit.

CCCCCCCCCCCCCCCCCCOP(=O)([O-])OC1CC[N+](C)(C)CC1; 1.01
NC(=O)c1cccc2cn(-c3ccc([C@@H]4CCCNC4)cc3)nc12; 1.1
C=CC(=O)Nc1cccc(Nc2nc(Nc3ccc(N4CCN(C(C)=O)CC4)cc3OC)ncc2C(F)(F)F)c1; 0.961

// below: relative viability requested for another compound
Form field: reported relative viability of Cc1nc(Nc2ncc(C(=O)Nc3c(C)cccc3Cl)s2)cc(N2CCN(CCO)CC2)n1
0.623

* * *

Below is a list of entries, each paired with its recorded relative viability value.
- Tested on: SW872
- experiment: relative viability vs DMSO control (72 h) (fraction); higher = more viable cells
- stated_conditions: 0.00017 µM
Lab note: write the figure by itself, no unit.

Solved cases below.
C=CC(=O)Nc1cccc(Nc2nc(Nc3ccc(N4CCN(C(C)=O)CC4)cc3OC)ncc2C(F)(F)F)c1; 1.1
CCN(CCCOc1ccc2c(Nc3cc(CC(=O)Nc4cccc(F)c4)[nH]n3)ncnc2c1)CCOP(=O)(O)O; 1.01
CCCCCCCCCCCCCCCCCCOP(=O)([O-])OC1CC[N+](C)(C)CC1; 1.07
C1=N/C2=N/c3ccc(OCCN4CCCC4)c(c3)COC/C=C/COCc3cccc(c3)C(=C1)N2; 1.11
Cc1cn(-c2cc(NC(=O)c3ccc(C)c(Nc4nccc(-c5cnccn5)n4)c3)cc(C(F)(F)F)c2)cn1; 1.06
CN(C)C[C@@H]1CCn2cc(c3ccccc32)C2=C(C(=O)NC2=O)c2cn(c3ccccc23)CCO1; 1

Form field: reported relative viability of COc1cc(OC)cc(N(CCNC(C)C)c2ccc3ncc(-c4cnn(C)c4)nc3c2)c1
1.03

* * *

- System: HS729
- experiment: standardised AUC of viability dose-response curve (72 h) (fraction (0-1)); higher = less growth inhibition (more resistant)
endpoint_label: standardised AUC
Lab note: write the figure by itself, no unit.

Solved cases below.
Cc1nc(Nc2ncc(C(=O)Nc3c(C)cccc3Cl)s2)cc(N2CCN(CCO)CC2)n1; 0.774
Cc1cc(Nc2ncc(Cl)c(Nc3ccccc3S(=O)(=O)C(C)C)n2)c(OC(C)C)cc1C1CCNCC1; 0.889
C[C@@H](Oc1cc(-c2cnn(C3CCNCC3)c2)cnc1N)c1c(Cl)ccc(F)c1Cl; 0.879

Form field: reported standardised AUC of CCCS(=O)(=O)N[C@H]1C[C@@H](N(C)c2ncnc3[nH]ccc23)C1
0.982

* * *

- System: VA-ES-BJ
- experiment: relative viability vs DMSO control (72 h) (fraction); higher = more viable cells
- stated_conditions: 3.333 µM
endpoint_label: relative viability
Lab note: write the figure by itself, no unit.

Form field: reported relative viability of CCCS(=O)(=O)N[C@H]1C[C@@H](N(C)c2ncnc3[nH]ccc23)C1
1.03

Form field: reported relative viability of CCN(c1cc(-c2ccc(CN3CCOCC3)cc2)cc(C(=O)NCc2c(C)cc(C)[nH]c2=O)c1C)C1CCOCC1
1.08

Form field: reported relative viability of Cc1nc(Nc2ncc(C(=O)Nc3c(C)cccc3Cl)s2)cc(N2CCN(CCO)CC2)n1
0.335

Form field: reported relative viability of CN(C)C[C@@H]1CCn2cc(c3ccccc32)C2=C(C(=O)NC2=O)c2cn(c3ccccc23)CCO1
0.825

* * *

- Test system: RD-ES
- experiment: relative viability vs DMSO control (72 h) (fraction); higher = more viable cells
- stated_conditions: 0.00051 µM
endpoint_label: relative viability
Lab note: write the figure by itself, no unit.

Solved cases below.
N#CCC1(n2cc(-c3ncnc4[nH]ccc34)cn2)CN(C2CCN(C(=O)c3ccnc(C(F)(F)F)c3F)CC2)C1; 0.949
COc1cc2ncnc(Nc3ccc(F)c(Cl)c3)c2cc1NC(=O)/C=C/CN1CCCCC1; 1.01
CCCCCCCCCCCCCCCCCCOP(=O)([O-])OC1CC[N+](C)(C)CC1; 1

Form field: reported relative viability of C#Cc1cccc(Nc2ncnc3cc(OCCOC)c(OCCOC)cc23)c1
0.974

Form field: reported relative viability of CN(C)C[C@@H]1CCn2cc(c3ccccc32)C2=C(C(=O)NC2=O)c2cn(c3ccccc23)CCO1
0.993

Form field: reported relative viability of NC(=O)c1cccc2cn(-c3ccc([C@@H]4CCCNC4)cc3)nc12
1.01

Form field: reported relative viability of Cc1nc(Nc2ncc(C(=O)Nc3c(C)cccc3Cl)s2)cc(N2CCN(CCO)CC2)n1
0.966

Form field: reported relative viability of Cc1cn(-c2cc(NC(=O)c3ccc(C)c(Nc4nccc(-c5cnccn5)n4)c3)cc(C(F)(F)F)c2)cn1
1.02

Form field: reported relative viability of C=CC(=O)Nc1cc(Nc2nccc(-c3cn(C)c4ccccc34)n2)c(OC)cc1N(C)CCN(C)C
0.978
